# TEST SYSTEM: His6-ERα298-554 D538G mutant (ERα ligand-binding domain) (Homo sapiens (Human), UniProt P03372, D538G)
# Sequence (P03372 298-554 D538G): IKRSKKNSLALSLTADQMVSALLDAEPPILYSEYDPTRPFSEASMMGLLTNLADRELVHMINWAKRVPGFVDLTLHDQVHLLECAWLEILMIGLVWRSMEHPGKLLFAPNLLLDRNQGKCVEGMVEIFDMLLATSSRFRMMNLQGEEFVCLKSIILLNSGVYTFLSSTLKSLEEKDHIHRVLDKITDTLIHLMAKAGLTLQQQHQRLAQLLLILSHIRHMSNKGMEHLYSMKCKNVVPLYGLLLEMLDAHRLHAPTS
# PROTOCOL DESCRIPTION: Test A: biochemical antagonist activity, LanthaScreen TR-FRET ERα coactivator assay, D538G mutant
# DETAILS: asterisk (*): protocol using 10 nM estradiol; read-out: Antagonism D538G IC50
pIC50: −log10 of the molar value.
In this section we review reported pIC50 values for a set of molecules.
MEASURED PARAMETER: pIC50

1) Oc1ccc2c(c1)CCCC(c1ccc(OC(F)(F)F)cc1)=C2c1ccc(N[C@H]2CCN(CCCF)C2)cc1 [Example 87] | 6.25
2) CCOc1cc(F)c(C2=C(c3ccc(O[C@H]4CCN(CCCF)C4)cc3)c3ccc(O)cc3SC2)cc1F [Example 40] | 6.05
3) CCOc1ccc(C2=C(c3ccc(O[C@H]4CCN(CCCF)C4)nc3)c3ccc(O)cc3CCC2)c(F)n1 [Example 240] | 8.22
4) CC/C(=C(/c1ccc(O[C@H]2CCN(CCCF)C2)cc1)c1ccc2[nH]ncc2c1)c1ccc(F)cc1Cl [Example 255] | 6.72
5) Oc1ccc2c(c1)SCCC(c1ccc(F)nc1F)=C2c1ccc(O[C@H]2CCN(CCCF)C2)cc1 [Example 215] | 6.72
6) CCOc1ccc(C2=C(c3ccc(O[C@H]4CCN(CCCF)C4)nc3)c3ccc(O)cc3SC2)c(F)n1 [Example 79] | 8.22
7) CCOc1ccc(C2=C(c3ccc(O[C@H]4CCN(CCCF)C4)nc3)c3ccc(O)cc3SCC2)c(F)n1 [Example 208] | 8.15
8) Cc1ccc(C2=C(c3ccc(O[C@H]4CCN(CCCF)C4)cc3)c3ccc(C(=O)O)cc3SCC2)c(F)c1 [Example 210] | 5.65
9) CCOc1ccc(C2=C(c3ccc(O[C@H]4CCN(CCCF)C4)cc3)c3ccc(O)cc3SCC2)c(F)c1 [Example 196] | 7.20
10) Nc1ccc(C2=C(c3ccc(O[C@H]4CCN(CCCF)C4)cc3)c3ccc(O)cc3SCC2)c(F)n1 [Example 223] | 7.38
11) CCNc1ccc(C2=C(c3ccc(O[C@H]4CCN(CCCF)C4)cc3)c3ccc(O)cc3SCC2)c(F)c1 [Example 200] | 7.29
12) COCCOc1ccc(C2=C(c3ccc(O[C@H]4CCN(CCCF)C4)cc3)c3ccc(O)cc3OCC2)cc1 [Example 146] | 5.93
13) Cc1cc(C2=C(c3ccc(O[C@H]4CCN(CCCF)C4)nc3)c3ccc(O)c(F)c3CCC2)ccc1Cl [Example 250] | 6.95
14) Oc1ccc2c(c1)SCC(c1ccc3ncccc3c1)=C2c1ccc(O[C@H]2CCN(CCCF)C2)cc1 [Example 67] | 5.74
15) CCOc1ccc(C2=C(c3ccc(O[C@H]4CCN(CCCF)C4)cc3)c3ccc(O)cc3SC2)c(F)c1F [Example 41] | 6.13
16) Oc1ccc2c(c1)SCCC(c1ccc(OC(F)(F)F)c(F)c1)=C2c1ccc(O[C@H]2CCN(CCCF)C2)cc1 [Example 190] | 6.20
17) Oc1ccc2c(c1)SCC(c1ccc(C(F)F)cc1F)=C2c1ccc(O[C@H]2CCN(CCCF)C2)cc1 [Example 62] | 6.28
18) Oc1ccc2c(c1)OCCC(c1ccc(OC3CC3)cc1)=C2c1ccc(O[C@H]2CCN(CCCF)C2)cc1 [Example 149] | 6.52
19) Cc1ccc(C2=C(c3ccc(O[C@H]4CCN(CCCF)C4)nc3)c3ccc(O)cc3CCC2)c(F)c1 [Example 237] | 8.15
20) Oc1ccc2c(c1)SCC(c1ccc(OCF)cc1)=C2c1ccc(O[C@H]2CCN(CCCF)C2)cc1 [Example 60] | 6.67
21) Cc1ccc(C2=C(c3ccc(O[C@H]4CCN(CCCF)C4)cc3)c3ccc(O)cc3SC2)c(F)c1F [Example 64] | 6.31
22) Oc1ccc2c(c1)SCC(c1ccc(Cl)nc1Cl)=C2c1ccc(O[C@H]2CCN(CCCF)C2)cc1 [Example 50] | 5.81
